Tested on: Escherichia coli TOP10;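 also: peptides expressed intracellularly from a pBAD plasmid library in pooled LB shake-flask culture, induced with 0.3% L-arabinose, DNA abundance read by NGS, three biological replicates, DESeq2 with apeglm shrinkage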
Test: shrunken log2 fold change of peptide-encoding DNA abundance (4.5 h post-induction vs induction); higher = less antimicrobial activity (less host growth inhibition)
Conditions: time post-induction: 4.5 h; library: site-saturation at positions 5, 18, 19, 20
Parameter threshold = -0.1. Response is T when shrunken log2 fold change meets or exceeds it, else F.

>>> assigned_category("RRIRTRPPRLPRPRPRPAFSPRP")
"T"
>>> assigned_category("RRIRGRPPRLPRPRPRPPWTPRP")
"T"
>>> assigned_category("RRIRLRPPRLPRPRPRPSHCPRP")
"F"
>>> assigned_category("RRIRKRPPRLPRPRPRPAGRPRP")
"T"
>>> assigned_category("RRIRHRPPRLPRPRPRPAWNPRP")
"T"

[in] Textbook exercise: given the entry RRIRDRPPRLPRPRPRPYFVPRP , state whether its shrunken log2 fold change is greater than or equal to -0.1.
[out] F

[in] Textbook exercise: given the entry RRIRPRPPRLPRPRPRPVILPRP , state whether its shrunken log2 fold change is greater than or equal to -0.1.
[out] F

[in] Textbook exercise: given the entry RRIRYRPPRLPRPRPRPLCGPRP , state whether its shrunken log2 fold change is greater than or equal to -0.1.
[out] F

[in] Textbook exercise: given the entry RRIRERPPRLPRPRPRPNAGPRP , state whether its shrunken log2 fold change is greater than or equal to -0.1.
[out] T

[in] Textbook exercise: given the entry RRIRDRPPRLPRPRPRPDVPPRP , state whether its shrunken log2 fold change is greater than or equal to -0.1.
[out] T

[in] Textbook exercise: given the entry RRIRIRPPRLPRPRPRPCSWPRP , state whether its shrunken log2 fold change is greater than or equal to -0.1.
[out] F

[in] Textbook exercise: given the entry RRIRPRPPRLPRPRPRPFKEPRP , state whether its shrunken log2 fold change is greater than or equal to -0.1.
[out] F

[in] Textbook exercise: given the entry RRIRPRPPRLPRPRPRPQIIPRP , state whether its shrunken log2 fold change is greater than or equal to -0.1.
[out] F

[in] Textbook exercise: given the entry RRIRARPPRLPRPRPRPFHYPRP , state whether its shrunken log2 fold change is greater than or equal to -0.1.
[out] F

[in] Textbook exercise: given the entry RRIRVRPPRLPRPRPRPEVWPRP , state whether its shrunken log2 fold change is greater than or equal to -0.1.
[out] T
